The origin of these recorded values is ChEMBL document CHEMBL1201862.

biological target: Mitogen-activated protein kinase kinase kinase kinase 4 (Homo sapiens, UniProt O95819); assay type: functional
Sequence (O95819 whole entry): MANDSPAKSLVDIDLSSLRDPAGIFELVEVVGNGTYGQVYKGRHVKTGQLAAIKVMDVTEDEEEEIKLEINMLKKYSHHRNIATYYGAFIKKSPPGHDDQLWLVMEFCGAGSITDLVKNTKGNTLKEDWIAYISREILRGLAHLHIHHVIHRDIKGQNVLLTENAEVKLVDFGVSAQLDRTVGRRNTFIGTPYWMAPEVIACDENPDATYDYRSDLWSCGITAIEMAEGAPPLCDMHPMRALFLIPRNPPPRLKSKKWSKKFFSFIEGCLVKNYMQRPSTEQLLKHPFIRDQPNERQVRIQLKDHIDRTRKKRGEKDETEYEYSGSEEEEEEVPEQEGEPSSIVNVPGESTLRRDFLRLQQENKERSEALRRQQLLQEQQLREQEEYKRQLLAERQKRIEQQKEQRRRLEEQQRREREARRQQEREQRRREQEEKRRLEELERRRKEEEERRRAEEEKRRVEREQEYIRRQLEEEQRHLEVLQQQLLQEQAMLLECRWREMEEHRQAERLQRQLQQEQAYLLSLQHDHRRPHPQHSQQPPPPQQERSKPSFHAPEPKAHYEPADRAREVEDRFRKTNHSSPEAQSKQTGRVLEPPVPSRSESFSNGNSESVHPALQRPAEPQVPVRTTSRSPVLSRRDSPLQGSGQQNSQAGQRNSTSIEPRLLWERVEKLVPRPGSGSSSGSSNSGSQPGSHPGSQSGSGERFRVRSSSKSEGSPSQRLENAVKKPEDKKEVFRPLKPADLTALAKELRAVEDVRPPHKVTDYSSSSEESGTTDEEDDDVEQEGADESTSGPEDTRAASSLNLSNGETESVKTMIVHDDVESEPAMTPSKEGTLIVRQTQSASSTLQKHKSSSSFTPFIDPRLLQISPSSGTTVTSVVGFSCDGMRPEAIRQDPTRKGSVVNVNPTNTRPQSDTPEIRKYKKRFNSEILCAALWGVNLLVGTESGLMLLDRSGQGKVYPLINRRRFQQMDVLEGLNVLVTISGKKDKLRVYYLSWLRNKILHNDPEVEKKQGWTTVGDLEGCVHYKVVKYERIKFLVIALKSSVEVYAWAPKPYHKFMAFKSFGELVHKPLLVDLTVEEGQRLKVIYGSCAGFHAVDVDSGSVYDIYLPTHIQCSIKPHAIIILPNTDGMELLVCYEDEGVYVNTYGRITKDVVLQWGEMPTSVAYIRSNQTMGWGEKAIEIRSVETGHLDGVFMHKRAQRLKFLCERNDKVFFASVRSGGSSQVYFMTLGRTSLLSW
Calls of active or inactive are those of the source.
Entry note: the call must match one of y = active, n = inactive

INSERT INTO results (compound, systemundertest, category) VALUES
  ('CCC1CC(NS(=O)(=O)C2CC2)CC1c1ncc2cnc3[nH]ccc3n12 (stereo not given)', 'Mitogen-activated protein kinase kinase kinase kinase 4 (Homo sapiens, UniProt O95819)', 'n'),
  ('O=c1cc(-c2ccc(F)cc2)[nH]c2c(-c3ccc(F)cc3)cnn12', 'Mitogen-activated protein kinase kinase kinase kinase 4 (Homo sapiens, UniProt O95819)', 'n'),
  ('O=c1[nH]c2cc(Br)cnc2[nH]1', 'Mitogen-activated protein kinase kinase kinase kinase 4 (Homo sapiens, UniProt O95819)', 'y'),
  ('O=C(Nc1cccc(C(F)(F)F)n1)Nc1ccnc2cc(OC(F)F)ccc12', 'Mitogen-activated protein kinase kinase kinase kinase 4 (Homo sapiens, UniProt O95819)', 'n');

QUERY: Assay outcome for CC(C)Oc1ccc(-c2noc(-c3ccc(OCC(O)CO)cc3)n2)cc1Cl (stereo not given) : what was it?
RESULT: y
